molecular target: recombinant human GM-CSF protein (human, UniProt P04141 18-144); assay: cell-based or functional assay
Sequence (P04141 18-144 limits assumed): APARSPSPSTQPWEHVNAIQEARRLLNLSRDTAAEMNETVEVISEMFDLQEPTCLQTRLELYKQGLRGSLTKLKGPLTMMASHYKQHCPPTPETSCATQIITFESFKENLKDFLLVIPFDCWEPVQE
Catalogue of IC50 for TF-1 proliferation readings, one per entry.
Kindly answer with a numeric value in µg/mL, unit omitted.

These recorded examples may help you get a feel for the data.
50C5 chimera (antibody, V domains shown, Human constant regions (captured by anti-human Fc IgG); also called 35230Hu50C5-chimera; Hu50C5-chimera) VH: QVQLQQSAAELVRPGASVKMSCKASGYIFTPYSIHWIKQRPGQGLEWIGYINPSTGYIEYNQHFKDRTTLTADKSSSTAYMQLRSLTSEDSAVYYCARGGDYEGYFDYWGQGTTLTVSS VL: DIQMTQSPDSLSASVGETVTITCRLNENIYSFLAWYQQRQGKSPQLLVYNAETLAEDVPSRFSGSGSGTQFSLKISSLQTDDFGTYYCQQHYGTPYTFGGGTNLEIE :: 0.0865
Hu50C5-11 (antibody, V domains shown, Humanized; also called 35230Hu50C5-11) VH: EVQLVQSGAEVKKPGSSVKVSCKASGYIFSPYSIHWVRQAPGQGLEWIGYINPSTGYIEYNQHFKDRVTITADKSTSTAYMELRSLRSEDTAVYYCARGGDYEGYFDYWGQGTTVTVSS VL: DIQMTQSPSSLSASVGDRVTITCRLNENIYSFLAWYQQKPGKAPKLLIYNAETLAEGVPSRFSGSGSGTDFTLTISSLQPEDFATYYCQQHYGTPYTFGGGTKVEIK :: 0.111

Lookup: Quick check: IC50 for TF-1 proliferation of Hu23F4-6 (antibody, V domains shown, Humanized) VH: EVQLVQSGAEVKKPGATVKISCKVSGYTFTSHYLHWVQQAPGKGLEWMGWIFPGDDKTKYNEKFKGRVTITSDTSTDTAYMELSSLRSEDTAVYYCARGTKYLNWNFDVWGQGTTVTVSS VL: DIQLTQSPSFLSASVGDRVTITCKANQNVGTTLAWYQQKPGKAPKALIYSASYRYSGVPSRFSGSGSGTEFTLTISSLQPEDFATYYCHQYTTYPLTFGGGTKVEIK ?
Found: 0.00787

Lookup: Reported IC50 for TF-1 proliferation, binder Hu50C5-18 (antibody, V domains shown, Humanized) VH: EVQLVQSGAEVKKPGSSVKVSCKASGYIFSPYSIHWVRQAPGQGLEWIGYINPSTGYIEYNQHFKDRTTLTADKSTSTAYMELRSLRSEDTAVYYCARGGDYEGYFDYWGQGTTVTVSS VL: DIQMTQSPSSLSASVGDRVTITCRLNENIYSFLAWYQQKPGKAPKLLVYNAETLAEDVPSRFSGSGSGTDFTLTISSLQPEDFATYYCQQHYGTPYTFGGGTKVEIK : ____
Found: 0.0413

Lookup: So what's the measured IC50 for TF-1 proliferation for this one? Hu23F4-27 (antibody, V domains shown, Humanized) VH: EVQLVQSGAEVKKPGASVKVSCKASGYTFTSHYLHWVRQAPGQGLEWMGWIFPGDDKTKYNEKFKGRVTMTSDTSISTAYMELSRLRSDDTAVYYCARGTKYLNWNFDVWGQGTTVTVSS VL: DIQLTQSPSFLSASVGDRVTITCKANQNVGTTLAWYQQKPGKSPKALIYSASYRYSGVPDRFSGSGSGTDFTLTISSLQPEDFATYFCHQYTTYPLTFGGGTKVEIK
Found: 0.00395
